assay: Measurement of critical degree of supersaturation of spherulite; format: physicochemical
Where a name gives a salt, the structure may show the parent alone.
Assign Met to entries whose actual measured value of the critical degree of supersaturation meets or exceeds 6; assign Not met to the rest.

Below, 2 compounds whose answers are already recorded.
>>> label("Cc1cccc(C)c1NC(=O)CC12CCCN1CCC2.Cl [Pilsicainide hydrochloride anhydride]")
"Met"
>>> label("CCCCCCOC(=O)N=C(N)c1ccc(NCc2nc3cc(C(=O)N(CCC(=O)OCC)c4ccccn4)ccc3n2C)cc1 [Dabigatran etexilate methanesulfonate]")
"Not met"

Is the recorded value of actual measured value of the critical degree of supersaturation equal to or greater than 6 for this compound? O=C(O)CCCN1CCC(O[C@@H](c2ccc(Cl)cc2)c2ccccn2)CC1.O=S(=O)(O)c1ccccc1 [Bepotastine besilate]
Met

Exam item: decide whether the reported actual measured value of the critical degree of supersaturation for Nc1nc(CC(=O)Nc2ccc(CCNC[C@H](O)c3ccccc3)cc2)cs1 is at least 6.
Not met

Decide: actual measured value of the critical degree of supersaturation of Cc1cc(N2CCN([C@@H]3CN[C@H](C(=O)N4CCSC4)C3)CC2)n(-c2ccccc2)n1 [Teneligliptin hydrobromide hydrate] >= 6?
Met

Evaluate N[C@@H](CCC(=O)N[C@@H](CS)C(=O)NCC(=O)O)C(=O)O : actual measured value of the critical degree of supersaturation at minimum 6?
Met

Dear colleague, could you confirm whether COc1cccc(C2(O)CCCCC2CN(C)C)c1 (stereo not shown) [Tramadol hydrochloride] has actual measured value of the critical degree of supersaturation at or above 6?
Not met
